- target_under_test: T1, human tissue factor (TF), membrane-bound on cells (human, UniProt P13726 33-295)
- T1 construct: whole, on cells; also called cellular TF
- experiment_notes: FACS, A431 cells, 30 µg/mL
property_name: Max MFI
Output spec: single numeric token, no unit.

Incoming: Value lookup for Max MFI; key = anti-TF HuMab 101 (antibody, V domains shown, Human monoclonal antibody from HuMab mice) VH: EVQLLESGGGLVQPGGSLRLSCAASGFTFSNYAMSWVRQAPAKGLDWVSGISGSGVTTYYADSVKGRFTISRDNSKDTLYLQMNSLRAEDTAVYFCAKTPWGYYFDYWGQGILVAVSS VL: DIQMTQSPSSLSASVGDRVTITCRASQGISSWLAWYQQKPEKAPKSLIYAASSLQSGVPSRFSGSGSGTDFTLTISSLQPEDFATYYCQQYNSYPLYTFGQGTKLEIK
Outgoing: 2930

Incoming: Tell me the measured Max MFI of anti-TF HuMab 111 (antibody, V domains shown, Human monoclonal antibody from HuMab mice) VH: QVQLVESGGGVVQPGRSLRLSCAGSGFTFNRYAMYWVRQAPGKGLDWVAVISNDGINKYYADSVKGRFTISRDNSKNTLYLQMNSLRAEDTAVYYCARDHTMVRGAFDYWGQGTLVTVSS VL: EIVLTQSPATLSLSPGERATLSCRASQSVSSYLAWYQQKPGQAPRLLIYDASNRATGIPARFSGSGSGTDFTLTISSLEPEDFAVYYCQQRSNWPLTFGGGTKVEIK , please.
Outgoing: 3040

Incoming: Query: Max MFI; subject: anti-TF HuMab 109 (antibody, V domains shown, Human monoclonal antibody from HuMab mice) VH: QVQLVESGGGVVQPGRSLRLSCPASGFTFSIYAMHWVRQAPGKGLEWVAVVSNDGYNKYYADSVKGRFTISRDNSKDTLYLQMNSLRAEDTAVYYCARDGQLGRGYFDYWGQGTLVTVSS VL: EIVLTQSPATLSLSPGERAILSCRASQSVSSYLAWYQQKPGQAPRLLIYDASNRATGIPARFSGSGSGTDFTLTISSLEPEDFAVYYCQQRSNWPLTFGGGTKVEIK
Outgoing: 3120

Incoming: Data request, read-out Max MFI, for anti-TF HuMab 044 (antibody, V domains shown, Human monoclonal antibody from HuMab mice) VH: QVQLVESGGGVVQPGRSLRLSCAASGFTFSDYAMHWVRQAPGKGLEWVAVIPYDGDNKYYADSVKGRFTISRDNSKNTLYLQMNSLRAEDTAVYYCAREDWGLEVDYWGQGALVTVSS VL: AIQLTQSPSSLSASVGDRVTITCRASQGINSALAWYQQKPGKAPKLLIYDASSLESGVPSRFSGSGSGTDFTLTISSLQPEDFATYYCQQFNSYPLTFGGGTKVEIK
Outgoing: 2650
